Values compiled from patent US7560568B2.

# STUDY_SYSTEM: PLK1 kinase domain (Homo sapiens, UniProt P53350)
# Construct: made in house; host or cells: baculovirus infected T. ni cells
# Sequence (P53350 21-346): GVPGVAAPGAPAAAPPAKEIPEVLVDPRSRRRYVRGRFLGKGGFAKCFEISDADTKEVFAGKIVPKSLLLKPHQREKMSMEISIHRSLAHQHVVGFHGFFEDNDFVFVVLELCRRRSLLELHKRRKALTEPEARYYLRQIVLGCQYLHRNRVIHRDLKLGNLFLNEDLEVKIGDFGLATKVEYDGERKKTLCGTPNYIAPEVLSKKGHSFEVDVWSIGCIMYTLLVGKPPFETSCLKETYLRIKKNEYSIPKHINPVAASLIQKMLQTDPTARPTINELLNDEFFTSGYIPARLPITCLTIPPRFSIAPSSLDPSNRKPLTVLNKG
# ASSAY_EXPLANATION: Assay for Inhibition of PLK1 (SPA, 33P-ATP, His-tagged PLK kinase domain)
# Assay type: biochemical
# CONDITION_PARAMETERS: 2 nM PLK1 kinase domain, 1 μM ATP, 1.25 hrs at 22° C.; read-out: Average pIC50 PLK Enzyme Inhibition (converted)
# Procedure: I. Assay for Inhibition of PLK1 […] B. Enzyme activity +/− inhibitors was determined as follows: Compounds are added to the plate (1 μl in 100% DMSO). […] Reaction Mix (20 μl) is added per well to each well immediately upon addition of enzyme and incubated 1.25 hrs. at 22° C. […] Plates are sealed with clear plastic seals, spun at 500×g for 1 min. or settled overnight, and plates counted in Packard TopCount for 30 seconds/well. […]
READOUT: IC50

NC(=O)c1sc(-n2cnc3ccccc32)nc1OCc1ccccc1C(F)(F)F: < 100 nM
COc1cc2ncn(-c3nc(OCc4ccccc4C(F)(F)F)c(C(N)=O)s3)c2cc1OC: < 100 nM
NC(=O)c1sc(-n2cnc3ccc(Cl)cc32)nc1OCc1ccccc1C(F)(F)F: < 100 nM
NC(=O)c1sc(-n2cnc3cc(Cl)ccc32)nc1OCc1ccccc1C(F)(F)F: 100 to 10000 nM
NC(=O)c1sc(-n2cnc3ccc(F)cc32)nc1OCc1ccccc1C(F)(F)F: 100 to 10000 nM

Consider now this further molecule.
Kindly state the measured IC50 obtained for Cc1cc2ncn(-c3nc(OCc4ccccc4C(F)(F)F)c(C(N)=O)s3)c2cc1C with PLK1 kinase domain (Homo sapiens, UniProt P53350).
100 to 10000 nM
